Property: bioavailability; scope: individual molecules
protocol_text: Oral bioavailability in rat (dose 30 mg/kg)
Assay type: ADME, organism-based
measurement_parameters: in vivo
In your response, put the unit directly after the numeric value.

Example molecules with recorded bioavailability:
N[C@H]1CC[C@H](C(NC(=O)[C@@H]2CC[C@H]3CN(S(=O)(=O)Cc4ccccc4)CC(=O)N32)C(=O)C(=O)O)CC1 (some centres undefined) ... 0.4%
CCSC(=O)C(=O)C(NC(=O)[C@@H]1CC[C@H]2CN(S(=O)(=O)Cc3ccccc3)CC(=O)N21)[C@H]1CC[C@H](N)CC1 (some centres undefined) ... 0.3%
COC(=O)C(=O)C(NC(=O)[C@@H]1CC[C@H]2CN(S(=O)(=O)Cc3ccccc3)CC(=O)N21)[C@H]1CC[C@H](N)CC1 (some centres undefined) ... 1.1%

Now consider a different molecule.
State its bioavailability for this molecule: N[C@H]1CC[C@H](C(NC(=O)[C@@H]2CC[C@H]3CN(S(=O)(=O)Cc4ccccc4)CC(=O)N32)C(=O)c2nccs2)CC1 (some centres undefined)
1.8%

----------
study_target: Prothrombin (Homo sapiens)
test_readout: IC50
Answer format: number, then unit.

Param request: IC50 | system Prothrombin (Homo sapiens) | item CCCCOC(=O)C(=O)C(NC(=O)[C@@H]1CC[C@H]2CN(S(=O)(=O)Cc3ccccc3)CC(=O)N21)[C@H]1CC[C@H](N)CC1 (stereo partly specified)
0.1 nM

----------
protocol_text: Oral bioavailability in rat (dose 30 mg/kg)
Format: ADME, organism-based
measurement_parameters: in vivo
Listed below: bioavailability values for each entry.
// note: answer is a bare numeric in %

Below are worked cases with known answers.
CCCCOC(=O)C(=O)C(NC(=O)[C@@H]1CC[C@H]2CN(S(=O)(=O)Cc3ccccc3)CC(=O)N21)[C@H]1CC[C@H](N)CC1 (stereo partly drawn) ... 0.7
N[C@H]1CC[C@H](C(NC(=O)[C@@H]2CC[C@H]3CN(S(=O)(=O)Cc4ccccc4)CC(=O)N32)C(=O)c2nc3ccccc3s2)CC1 (stereo partly drawn) ... 0.6

Now turn to the next compound.
State its bioavailability for this compound: Cc1nc(C(=O)C(NC(=O)[C@@H]2CC[C@H]3CN(S(=O)(=O)Cc4ccccc4)CC(=O)N32)[C@H]2CC[C@H](N)CC2)sc1C(=O)O (stereo partly drawn)
0.4

----------
study_target: Serine protease 1 (Homo sapiens)
Sequence (P07477 whole entry): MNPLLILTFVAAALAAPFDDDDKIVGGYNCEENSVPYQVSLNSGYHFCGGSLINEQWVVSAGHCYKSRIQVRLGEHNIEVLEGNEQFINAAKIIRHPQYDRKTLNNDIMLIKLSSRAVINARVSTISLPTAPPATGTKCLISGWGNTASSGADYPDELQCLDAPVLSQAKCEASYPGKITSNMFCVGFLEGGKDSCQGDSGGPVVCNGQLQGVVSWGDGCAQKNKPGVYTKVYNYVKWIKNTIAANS
test_readout: pKi
Bear in mind: pKi is minus log10 of a mol/L concentration; give just that figure.

N[C@H]1CC[C@H](C(NC(=O)[C@@H]2CC[C@H]3CN(S(=O)(=O)Cc4ccccc4)CC(=O)N32)C(=O)c2nccs2)CC1 (some centres undefined) ... 5.10
Cn1nnnc1C(=O)C(NC(=O)[C@@H]1CC[C@H]2CN(S(=O)(=O)Cc3ccccc3)CC(=O)N21)[C@H]1CC[C@H](N)CC1 (some centres undefined) ... 4.46

State recorded pKi with Serine protease 1 (Homo sapiens), entry CNC(=O)C(=O)C(NC(=O)[C@@H]1CC[C@H]2CN(S(=O)(=O)Cc3ccccc3)CC(=O)N21)[C@H]1CC[C@H](N)CC1 (some centres undefined) , no comment.
5.62

Look up and report pKi, with Serine protease 1 (Homo sapiens) as system, for N[C@H]1CC[C@H](C(NC(=O)[C@@H]2CC[C@H]3CN(S(=O)(=O)Cc4ccccc4)CC(=O)N32)C(=O)C(=O)NCC(=O)O)CC1 (some centres undefined)
4.54
